Ref: the supplement of paper PMC10724198

System: Saccharomyces cerevisiae
assay.summary: protein stability index of tFT-peptide fusion (C-terminal peptide) (PSI (0-1 scale)); higher = more stable (slower turnover)
condition.details: genetic background: das1 deletion; temperature: 30 C
Assignment: determine reported protein stability index for the given sequences.
Numbers only.

Use the examples below as a reference point.
| macromolecule.sequence | property | recorded.value |
| --- | --- | --- |
| FYNIHDERIREQ [YKL162C-A C-terminal 12 aa] | protein stability index | 0.746 |
| EDLDSDLFSEVE [SSF1 C-terminal 12 aa] | protein stability index | 0.682 |
| YDYLINNKTIFD [POF1 C-terminal 12 aa] | protein stability index | 0.722 |
| ICFREFFDRVET [YJL077W-B C-terminal 12 aa] | protein stability index | 0.714 |
| SDLNVLLQIKHS [YNL228W C-terminal 12 aa] | protein stability index | 0.72 |
| IKGKFYVKILGN [YGR115C C-terminal 12 aa] | protein stability index | 0.635 |
| ATPPYQVFKQQL [FMN1 C-terminal 12 aa] | protein stability index | 0.698 |
| ATICSVAFVKQN [EFM4 C-terminal 12 aa] | protein stability index | 0.624 |
| NTLRISTVGQEF [PYK2 C-terminal 12 aa] | protein stability index | 0.711 |
| ELKKRFDALRRK [IST1 C-terminal 12 aa] | protein stability index | 0.686 |

Please go through the list and note protein stability index for each sequence.
1. SFGIGSKVFSSM [YHR063W-A C-terminal 12 aa]
2. LLFGDEVVACKD [YDL172C C-terminal 12 aa]

// result
1. 0.711
2. 0.722
